Tested on: Trichophyton mentagrophytes
Assay: Antifungal activity against Trichophyton mentagrophytes 445 after 120 hrs by microdilution method
Assay type: functional
Conditions: Trichophyton mentagrophytes, 445, 120 h
Rule for this label: rule met means MIC80 is less than 20 µM; rule not met means MIC80 is at least 20 µM.

- compound: "O=C1O/C(=C\\c2ccccc2)C=C1c1ccc(Br)cc1"
  class_label: "rule not met"
- compound: "O=C1O/C(=C\\COC(=O)c2ccccc2)C=C1c1ccc(Br)cc1"
  class_label: "rule not met"
- compound: "O=C1O/C(=C\\CCO)C=C1c1ccc(Br)cc1"
  class_label: "rule not met"
- compound: "COc1ccc(OCC2C=C(c3ccc(Br)cc3)C(=O)O2)cc1 (stereo not drawn)"
  class_label: "rule met"
- compound: "C/C=C1/C=C(c2ccc(Br)cc2)C(=O)O1"
  class_label: "rule not met"
- compound: "COC(=O)/C=C1\\C=C(c2ccc(Br)cc2)C(=O)O1"
  class_label: "rule not met"
- compound: "O=C1OCC=C1c1ccc(Br)cc1"
  class_label: "rule not met"
- compound: "O=C1OC(COc2cccc(C(=O)O)c2)C=C1c1ccc(Br)cc1 (stereo not drawn)"
  class_label: "rule met"
- compound: "O=C1OC(COc2ccc(C(=O)O)cc2)C=C1c1ccc(Br)cc1 (stereo not drawn)"
  class_label: "rule met"
- compound: "COC(=O)c1ccc(OCC2C=C(c3ccc(Br)cc3)C(=O)O2)cc1 (stereo not drawn)"
  class_label: "rule met"
- compound: "O=C1OC(COc2ccccc2)C=C1c1ccc(Br)cc1 (stereo not drawn)"
  class_label: "rule met"
- compound: "CCOCC1C=C(c2ccc(Br)cc2)C(=O)O1 (stereo not drawn)"
  class_label: "rule met"
- compound: "O=C1O/C(=C\\CO)C=C1c1ccc(Br)cc1"
  class_label: "rule met"
- compound: "CC(=O)OCC/C=C1/C=C(c2ccc(Br)cc2)C(=O)O1"
  class_label: "rule met"
- compound: "CC(=O)OC/C=C1/C=C(c2ccc(Br)cc2)C(=O)O1"
  class_label: "rule met"
- compound: "O=C1OC(COc2ccc(I)cc2)C=C1c1ccc(Br)cc1 (stereo not drawn)"
  class_label: "rule met"
- compound: "O=C1OC(COc2cccc(Br)c2)C=C1c1ccc(Br)cc1 (stereo not drawn)"
  class_label: "rule met"
- compound: "C=C1C=C(c2ccc(Br)cc2)C(=O)O1"
  class_label: "rule met"

Where do the numbers come from? From ChEMBL document CHEMBL1157589.
